Biological target: IgG (Gammanorm)
Assay: SPR (Biacore), variant amine-coupled to CM5 chip, Gammanorm as analyte, 1:1 kinetic fit
measurement type: Kd (nM)

binder: Protein L variant pAM257 (domain C2-2; H10, H45, Y60) (protein) PKEEVTIKVHLIFADGKTQTAEFKGTFEEATAKAYAYADLLAKEHGEYTADLEDGGNTIYIKFAGKETPETPEE
measure unit: nM
Kd: 47

[I] Protein L variant pAM246 (domain C3b-1; H10, H45, Q60) (protein) PKEEVTIKVHLIFADGKIQTAEFKGTFEEATAKAYAYADLLAKEHGEYTADLEDGGYTIQIKFAGKETPETPEE
[II] Protein L variant pAM238 (domain B3-1; H10, H45, Q60) (protein) PKEEVTIKAHLIYADGKTQTAEFKGTFEEATAEAYRYADLLAKEHGKYTVDVADKGYTLQIKFAGKEKTPEE
Record comparison, field Kd: mark the lower of I and II . Write down the label attached to your selection. I
(I: 17 nM, II: 25 nM)

[I] Protein L variant pAM245 (domain C3-1; H10, H45, Q60) (protein) PKEEVTIKVHLIFADGKIQTAEFKGTFEEATAKAYAYANLLAKEHGEYTADLEDGGNTIQIKFAGKETPETPEE
[II] Protein L variant pAM244 (domain C2b-1; H10, H45, Q60) (protein) PKEEVTIKVHLIFADGKTQTAEFKGTFEEATAKAYAYADLLAKEHGEYTADLEDGGYTIQIKFAGKETPETPEE
Out of I and II , name the one with the higher Kd. Answer by quoting the chosen item's label. I
(I: 65 nM, II: 18 nM)
